The reader will find reported A450nm values listed item by item below.
# subjectOfTest: T1, Cynomolgus PSGL-1(ECD)-hFc1 (cynomolgus macaque)
# T1 construct: also called Cyno PSGL1-Fc; Cyno PSGL-1(ECD)-Fc
# experimentalDetails: ELISA, 20 nM mAb on plate cyno PSGL-1(ECD)-Fc

- binder: "05E08 (antibody, IgG4, V domains shown) VH: EVQLVQSGGGVVQPGRSLRLSCAASGFTFSTYAMHWVRQAPGKGLEWVAVISYDGSNKYYADSVKGRFTISRDNSRNTLFLQMNSLRDEDTAVYYCAKRGTMIRGERSLDFWGQGTLVTVSS VL: AIQMTQSPSFLSASVGDRVTITCRASQGINSWLAWYQQKPGTAPNLLIHAASTLQSGVPSRFSGSRSGTEFTLTISSLQPEDFATYYCQQLQSYPLTFGQGTRLEIK"
  A450nm (A450 nm): 0.77
- binder: "10F01 (antibody, IgG4, V domains shown) VH: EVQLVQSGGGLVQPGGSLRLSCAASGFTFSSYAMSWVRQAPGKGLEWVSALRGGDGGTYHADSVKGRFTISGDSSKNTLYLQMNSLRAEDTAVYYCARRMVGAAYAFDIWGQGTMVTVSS VL: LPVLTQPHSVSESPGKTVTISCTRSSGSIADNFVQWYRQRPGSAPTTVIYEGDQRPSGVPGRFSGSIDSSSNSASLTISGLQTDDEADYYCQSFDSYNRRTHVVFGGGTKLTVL"
  A450nm (A450 nm): 1.22
- binder: "03B03 (antibody, IgG4, V domains shown) VH: EVQLVQSGGGLVQPGGSLRLSCAATGFTVSRNYMTWVREAPGKGLEWVAGIYKSGTTSYTESVKGRFTISRDNSKNTLYLEMSRLRAEDTAVYYCAKSTSTWGQGTQVTVSS VL: DIVMTQSPLSLPVTLGQPASISCRASQSPGYSDGNTYLNWFQQRPGQSPRRLIYKVSNRDPGVPDRFSGSGSGTDFTLKISRVEAEDVGVYYCMQATHWPSFGQGTRLEIK"
  A450nm (A450 nm): 0.45

Each recorded value in this set is attributed to patent US20220396632A1.
